Cited source: ChEMBL document CHEMBL1201862

Tested on: T47D
Protocol Details: NCI tumour cell line growth inhibition, 48 h
Activity calls are given as the source filed them. Rule as the data show it: active = GI50 up to about 1.1 µM and inactive = higher.
Outcomes: Y = active, N = inactive

{"columns": ["Molecule", "Answer Label"],
 "data": [
  ["COc1ncc(/C=C2\\OC(=O)c3ccccc32)c(OC)n1", "N"],
  ["Cc1ccc(OCC2OC(n3cnc4c(N(C)C)nc(Br)nc43)CC2Oc2ccc(C)cc2)cc1 (stereo not given)", "N"],
  ["O=C1c2ccccc2C2(c3ccc(Cl)cc3)NCc3ccccc3CN12 (stereo not given)", "N"],
  ["CC[C@@]1(O)C(=O)OCc2c1cc1n(c2=O)Cc2c-1nc1ccccc1c2/C=N\\NC(=O)C(N)CC(C)C (stereo not given in full)", "Y"],
  ["O=C(/C=C/c1ccc(Cl)cc1)Oc1ccc(C=C2CCC/C(=C\\c3ccc(OC(=O)/C=C/c4ccc(Cl)cc4)cc3)C2=O)cc1", "N"],
  ["CCOC(=O)Nn1cnnc1C", "N"],
  ["COc1c(F)c(F)c(C(=O)/C=C2\\Nc3ccccc3NC2=O)c(F)c1F", "N"],
  ["CCOC(=O)/C(C(=O)Nc1cccc(Cl)c1)=C(/N)N1CCCC1", "N"],
  ["COC(=O)c1ccc2cc(O)c(O)cc2c1", "N"],
  ["CCOc1cc(NC(C)=O)ccc1C(=O)NNS(=O)(=O)c1ccc(Cl)cc1Cl", "N"]
]}

---

System: SW-620
Protocol Details: NCI tumour cell line growth inhibition, 48 h
Active and inactive are the calls of the source. Cut-off read from the data, not from the text of the source: active = GI50 up to about 1.1 µM and inactive = higher.
Measured GI50, listed per entry.

{"columns": ["Compound", "Subject Of Test", "GI50"],
 "data": [
  ["COC(=O)/C(C#N)=C1\\CCC(OC)N1C (stereo unspecified)", "SW-620", "> 100 µM (inactive)"],
  ["O=C1CC(c2ccccc2)Oc2ccccc21 (stereo unspecified)", "SW-620", "> 10 µM (inactive)"],
  ["Nc1nc(N)c2cc(-c3cc4ccccc4[nH]3)ccc2n1", "SW-620", "30.8 µM (inactive)"],
  ["CCCCCCCCCCCC[S+](C)C", "SW-620", "9.23 µM (inactive)"],
  ["NS(=O)(=O)c1nnc(NS(=O)(=O)c2cccc3cccnc23)s1", "SW-620", "> 100 µM (inactive)"],
  ["NC1=NS(=O)(=O)N=C(N)C1=Cc1ccc([N+](=O)[O-])o1", "SW-620", "18.3 µM (inactive)"]
]}

---

Tested on: SW-620
Protocol Details: NCI tumour cell line growth inhibition, 48 h
Calls of active or inactive are those of the source. Cut-off read from the data, not from the text of the source: active = GI50 up to about 1.1 µM and inactive = higher.
Outcomes: True for active, False for inactive

{"columns": ["Compound", "Answer Label"],
 "data": [
  ["O=C(OCc1ccccc1)C1(N2CN(C3(C(=O)OCc4ccccc4)CCCC3)CN(C3(C(=O)OCc4ccccc4)CCCC3)C2)CCCC1", "False"],
  ["O=C1c2ccccc2C(=O)c2nc3c(O)cccc3cc21", "False"],
  ["CC[C@@]1(O)C(=O)OCc2c1cc1n(c2=O)Cc2c-1nc1ccccc1c2/C=N\\NC(=O)C(N)CC(C)C (some centres not stated)", "True"],
  ["CN(C)Cc1cc(C(C)(C)C)cc(C2CCCCC2)c1O", "False"],
  ["N#CC1C(=S)NC(c2ccccc2)=CC12CCCCC2 (configuration not stated)", "False"],
  ["Clc1cccc(N/N=N/c2ccc(-c3nc4ccccc4s3)cc2)c1", "False"],
  ["O=C(Cn1c(-c2ccccc2)cc2ccccc21)N1CCOCC1", "False"]
]}
